Each recorded value in this set is attributed to the supplement of paper PMC10567573.

Measured protein stability index, listed per entry.
B1: KRT18 (parent)
chain: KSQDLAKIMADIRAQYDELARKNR

Variants of: B1
ASSAY INFO: protein stability index of a GFP-peptide fusion (GPS, HEK-293T) (PSI 1-6); higher = more stable;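 further: lentivirally expressed fusions sorted by FACS into six bins by GFP to DsRed ratio, PSI derived from sequencing read proportions per bin multiplied by bin number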
PARTICULARS: c terminus: a fixed tail appended
Just the number, please, no unit attached.

{"columns": ["VARIANT", "protein stability index"],
 "data": [
  ["Q3A", 2.31],
  ["E18Q", 2.68],
  ["M9W", 2.38],
  ["L5E", 3.94],
  ["D17I", 2.01],
  ["L19E", 4.01],
  ["N23S", 3.29],
  ["A6W", 1.98]
]}

[in] Report protein stability index for R13G
[out] 2.8

[in] Answer with the recorded protein stability index for the variant listed here: Q15D
[out] 3.49

[in] Supply recorded protein stability index for S2R here.
[out] 2.56

[in] Look up and state reported protein stability index for A20Q
[out] 2.94

[in] Identify the reported protein stability index for the following entry. L5M
[out] 2.99
